Test system: Corn Earworm (CEW) (Helicoverpa zea)
measurement description: Bioassay on Corn Earworm (CEW), 128-well diet tray assay
Assay type: in vivo
measurement setup: Helicoverpa zea, 168 h; 50 μg/cm2 on artificial diet, second instar larvae, five to seven days; read-out: Rating CEW (% Control (or Mortality))
A collection of molecules and their measured mortality at 50 µg/cm2

>  <molecule>
Cc1cc(C)c(N2C(=O)C(C)S/C2=N\C(=O)Nc2ccc(-c3ncn(-c4ccc(OC(F)(F)F)cc4)n3)cc2)c(C)c1 (centres unmarked) [Molecule A37]

>  <tested system>
Corn Earworm (CEW) (Helicoverpa zea)

>  <mortality at 50 µg/cm2>
50 to 100%

$$$$
>  <molecule>
Cc1cc(C)c(N2CC(C)CS/C2=N\C(=O)Nc2ccc(-c3ncn(-c4ccc(OC(F)(F)F)cc4)n3)cc2)c(C)c1 (centres unmarked) [Molecule A41]

>  <tested system>
Corn Earworm (CEW) (Helicoverpa zea)

>  <mortality at 50 µg/cm2>
50 to 100%

$$$$
>  <molecule>
CC(C)c1cccc(Cl)c1N/C(S)=N/C(=O)Nc1ccc(-c2ncn(-c3ccc(OC(F)(F)F)cc3)n2)cc1 [Molecule A81]

>  <tested system>
Corn Earworm (CEW) (Helicoverpa zea)

>  <mortality at 50 µg/cm2>
50 to 100%

$$$$
>  <molecule>
N#C/C(C(=O)Nc1ccc(-c2ncn(-c3ccc(OC(F)(F)F)cc3)n2)cc1)=C(/S)Nc1c(F)cccc1F [Molecule A30]

>  <tested system>
Corn Earworm (CEW) (Helicoverpa zea)

>  <mortality at 50 µg/cm2>
0%

$$$$
>  <molecule>
N#C/C(C(=O)Nc1ccc(-c2ncn(-c3ccc(OC(F)(F)F)cc3)n2)cc1)=C(/S)Nc1ccccc1-c1ccccc1 [Molecule A27]

>  <tested system>
Corn Earworm (CEW) (Helicoverpa zea)

>  <mortality at 50 µg/cm2>
0 to 50%

$$$$
>  <molecule>
COc1ccc(N/C(O)=C/C(=O)Nc2ccc(-c3ncn(-c4ccc(OC(F)(F)F)cc4)n3)cc2)c(C)c1 [Molecule A33]

>  <tested system>
Corn Earworm (CEW) (Helicoverpa zea)

>  <mortality at 50 µg/cm2>
50 to 100%

$$$$
>  <molecule>
COc1ccc(N/C(=N/C(=O)Nc2ccc(-c3ncn(-c4ccc(C(F)(F)F)cc4)n3)cc2)SC)c(C)c1 [Molecule A2]

>  <tested system>
Corn Earworm (CEW) (Helicoverpa zea)

>  <mortality at 50 µg/cm2>
50 to 100%

$$$$
>  <molecule>
CCc1ccccc1N/C(=N\C(=O)Nc1ccc(-c2ncn(-c3ccc(OC(F)(F)F)cc3)n2)cc1)SCOC(=O)C(C)C [Molecule A57]

>  <tested system>
Corn Earworm (CEW) (Helicoverpa zea)

>  <mortality at 50 µg/cm2>
50 to 100%

$$$$
>  <molecule>
CC(C)c1ccccc1N1C(=O)CS/C1=C\C(=O)Nc1ccc(-c2ncn(-c3ccc(OC(F)(F)F)cc3)n2)cc1 [Molecule A24]

>  <tested system>
Corn Earworm (CEW) (Helicoverpa zea)

>  <mortality at 50 µg/cm2>
50 to 100%

$$$$
>  <molecule>
COc1cc(C)c(-n2c(C)cs/c2=N\C(=O)Nc2ccc(-c3ncn(-c4ccc(OC(F)(F)F)cc4)n3)cc2)c(C)c1 [Molecule A44]

>  <tested system>
Corn Earworm (CEW) (Helicoverpa zea)

>  <mortality at 50 µg/cm2>
50 to 100%

$$$$
>  <molecule>
CC(C)c1ccccc1N/C(S)=C(\C#N)C(=O)Nc1ccc(-c2ncn(-c3ccc(OC(F)(F)F)cc3)n2)cc1 [Molecule A25]

>  <tested system>
Corn Earworm (CEW) (Helicoverpa zea)

>  <mortality at 50 µg/cm2>
0 to 50%

$$$$
>  <molecule>
COc1cc(C)c(N/C(=N/C(=O)Nc2ccc(-c3ncn(-c4ccc(OC(F)(F)F)cc4)n3)cc2)SCOC(=O)C(C)C)c(C)c1 [Molecule A7]

>  <tested system>
Corn Earworm (CEW) (Helicoverpa zea)

>  <mortality at 50 µg/cm2>
50 to 100%

$$$$
>  <molecule>
Cc1ccccc1N/C(S)=C/C(=O)Nc1ccc(-c2ncn(-c3ccc(OC(F)(F)F)cc3)n2)cc1 [Molecule A22]

>  <tested system>
Corn Earworm (CEW) (Helicoverpa zea)

>  <mortality at 50 µg/cm2>
50 to 100%

$$$$
>  <molecule>
COc1ccc(N/C(=N\C(=O)Nc2ccc(-c3ncn(-c4ccc(OC(F)(F)F)cc4)n3)cc2)SCOC(=O)C(C)C)c(C)c1 [Molecule A56]

>  <tested system>
Corn Earworm (CEW) (Helicoverpa zea)

>  <mortality at 50 µg/cm2>
50 to 100%

$$$$
